MEASURED_QUANTITY: melting point

-- ask # return recorded melting point for entry "ClCc1coc(-c2ccsc2)n1"
-- reply 91 to 92 °C

-- ask # return recorded melting point for entry "CN(C)c1ccc(F)c(C#N)c1"
-- reply 72 to 72.5 °C

***
-- ask # return recorded melting point for entry "Nc1cc(Oc2cccc(O)c2)ccc1[N+](=O)[O-]"
-- reply 137 °C

-- ask # return recorded melting point for entry "CCOC(=O)c1cn(-c2ccc(OC)c(OC)c2)cn1"
-- reply 125 to 126 °C

-- ask # return recorded melting point for entry "N#Cc1ccc(NC(=O)c2ccc(S(=O)(=O)N3CCc4cc(Cl)ccc43)cc2)c(-c2n[nH]c(=O)o2)c1"
-- reply 262 to 264 °C

-- ask # return recorded melting point for entry "CCN(c1nc2c(cc1CN(Cc1cc(C(F)(F)F)cc(C(F)(F)F)c1)c1nnn(C)n1)c(C)nn2C)C1CCCC1"
-- reply 43 to 44 °C

----------
# key: entry, value: melting point

Some entries whose results are on file:
-- ask # return recorded melting point for entry "O=C1OC2(CCN(C(=O)Nc3cnc(-c4cccc(O)c4)cn3)CC2)c2ccccc21"
-- reply 257 to 259 °C

-- ask # return recorded melting point for entry "COc1ccc(-n2nc(Sc3ccccc3)c(C)c(C#N)c2=O)cc1"
-- reply 179 to 180 °C

-- ask # return recorded melting point for entry "CC1(C)CCC(C)(C)c2cc(-c3c[nH]c(C=O)c3)ccc21"
-- reply 211 to 212 °C

-- ask # return recorded melting point for entry "CCc1cnc2c(NC(=O)c3c(Cl)cccc3Cl)cccc2c1CCC(=O)O"
-- reply 236 to 237 °C

***
-- ask # return recorded melting point for entry "COc1cccc(CSc2ncccc2C(=O)O)c1"
-- reply 156 to 157 °C

-- ask # return recorded melting point for entry NC(=O)C1CCc2[nH]c3cc(Cl)c(F)cc3c2C1 (stereo unspecified)
-- reply 245 to 246 °C

-- ask # return recorded melting point for entry CCOC(=O)C(C)Oc1ccc([N+](=O)[O-])cc1 (stereo unspecified)
-- reply 55 to 56 °C

-- ask # return recorded melting point for entry "CCOC(=O)c1c(C)nc(-c2ccccc2)nc1-c1ccncc1"
-- reply 95 to 96 °C

-- ask # return recorded melting point for entry CNc1ncnc2c1ncn2C1OC(CO)C(O)C1F (stereo unspecified)
-- reply 140 °C

----------
# key: entry, value: melting point

Some entries whose results are on file:
-- ask # return recorded melting point for entry "CCc1nnc2c(NC)nc3ccccc3n12"
-- reply 271 to 273 °C

-- ask # return recorded melting point for entry O=C(O)C1=CSC2C(=Cc3cc4c(s3)CCSC4)C(=O)N12 (configuration not stated)
-- reply > 250 °C

-- ask # return recorded melting point for entry "O=[N+]([O-])c1ccc(-c2nc[nH]c2-c2ccc([N+](=O)[O-])cc2)cc1"
-- reply 294 °C

-- ask # return recorded melting point for entry CC(=O)Oc1ccc2c(c1)CCC1C3CCC(=O)C3(C)CC(=O)C21O (configuration not stated)
-- reply 247 to 248 °C

-- ask # return recorded melting point for entry "CC(C)c1ccc(NCc2ccc(Br)cc2)cc1"
-- reply 30 °C

***
-- ask # return recorded melting point for entry "Cc1cc(NC(=S)Nc2cc(Cl)ccc2C)sn1"
-- reply 187 to 188 °C

-- ask # return recorded melting point for entry "CCOC(=O)COc1ccc(-c2noc3ccccc23)c(Cl)c1Cl"
-- reply 88 to 89 °C

-- ask # return recorded melting point for entry CCS(=O)(=O)c1cc(OC)c(OC)c(C(=O)NCC2CCCN2CC2CC2)c1 (configuration not stated)
-- reply 167 to 170 °C

-- ask # return recorded melting point for entry COCNC(=O)ON=C1SCOC1C (configuration not stated)
-- reply 78 to 79 °C

-- ask # return recorded melting point for entry "CCCCCCCCCCCCCCCCCCNC(=O)c1ccc(OC(C)=O)cc1"
-- reply 106 °C

-- ask # return recorded melting point for entry "COc1ccc(C=C(C)C(=O)O)cc1F"
-- reply 167 to 169 °C

-- ask # return recorded melting point for entry "NC(=O)c1c(Cl)c(-c2ccccc2)n2c1CN(S(=O)(=O)Nc1ccc(C(F)(F)F)cc1)CC2"
-- reply 209 to 211 °C

-- ask # return recorded melting point for entry "C[C@@H](Cn1ncc2ccc(O)c(C=O)c21)NC(=O)OCc1ccccc1"
-- reply 135 to 137 °C

-- ask # return recorded melting point for entry "O=C(c1ccccc1)c1cc(Cl)ccc1C#CCN1C(=O)c2ccccc2C1=O"
-- reply 130 to 133 °C

-- ask # return recorded melting point for entry "COC1(c2cc(F)cc(Sc3ccc(C(CO)=NO)cc3)c2)CCOCC1"
-- reply 145 to 146 °C

-- ask # return recorded melting point for entry O=C(OC1CCCCCC1=O)c1ccccc1 (configuration not stated)
-- reply 59 to 60 °C

-- ask # return recorded melting point for entry CC(=O)Nc1nc2c(sc(=O)n2C2OC(COC(C)=O)C(OC(C)=O)C2OC(C)=O)c(=O)[nH]1 (configuration not stated)
-- reply 247 to 248 °C

-- ask # return recorded melting point for entry "NC(=O)Nc1nc2n(n1)CCc1ccccc1-2"
-- reply 210 to 212 °C

-- ask # return recorded melting point for entry "C[C@](O)(CBr)C(=O)Nc1ccc(C#N)c(C(F)(F)F)c1"
-- reply 124 to 126 °C

-- ask # return recorded melting point for entry "O=CCCNc1[nH]c(-c2ccc(F)cc2)nc1-c1ccccc1"
-- reply 201 to 202 °C

-- ask # return recorded melting point for entry "C=Cc1ncn2c1[C@@H]1CCN1C(=O)c1c(Cl)cccc1-2"
-- reply 171 to 172 °C

-- ask # return recorded melting point for entry CCON=C(CC)C1=C(O)CC(c2ccc3c(c2)N(CC#N)C(=O)CO3)CC1=O (configuration not stated)
-- reply 156 to 159 °C

----------
# key: entry, value: melting point

Some entries whose results are on file:
-- ask # return recorded melting point for entry "Nc1nc2c(c(Nc3cccc(Cl)c3)n1)-c1ccccc1C2"
-- reply 224 to 225 °C

-- ask # return recorded melting point for entry CC(O)(Cc1cnc(Cl)s1)c1ccc(Cl)cc1Cl (stereo not given)
-- reply 164 °C

-- ask # return recorded melting point for entry "Cc1nc(N)sc1-c1ccnc(Nc2ccc(N3CCOCC3)cc2)n1"
-- reply 300 to 304 °C

***
-- ask # return recorded melting point for entry "Cn1c(C(F)(F)F)nn(-c2ccccc2[N+](=O)[O-])c1=O"
-- reply 83 °C

-- ask # return recorded melting point for entry "Cc1cccc(-c2nc(N)sc2-c2cccc(-c3ccc(S(C)(=O)=O)cc3)c2)n1"
-- reply 107 to 109 °C

----------
MEASURED_QUANTITY: melting point

Some entries whose results are on file:
-- ask # return recorded melting point for entry "Clc1cc(CCc2ccccn2)c2oc(-c3cnccn3)nc2c1"
-- reply 160 to 161 °C

-- ask # return recorded melting point for entry "CC(C)c1cc(C(=O)Nc2cccc(C(=O)O)c2)oc1C(C)C"
-- reply 244 to 245 °C

Now for another entry.
-- ask # return recorded melting point for entry "COc1ccc(C(=O)c2ccc(OCc3nc(-c4ccccc4)oc3C)cc2)c(OCCC(=O)O)c1"
-- reply 142 to 143 °C

----------
# key: entry, value: melting point

-- ask # return recorded melting point for entry "O=C1N[C@H](C(=O)NCCCCO)CS1"
-- reply 81 to 83 °C

Now for another entry.
-- ask # return recorded melting point for entry "CC(C)(C#N)c1cc(Cn2cncn2)cc(C(C)(C)C#N)c1"
-- reply 81 to 82 °C

----------
MEASURED_QUANTITY: melting point

-- ask # return recorded melting point for entry "Cc1ccc(-c2ccc3c(c2)C=C(C(=O)Nc2ccc(CN4CCCCC4)cc2)CCC3)cc1"
-- reply 192 to 193 °C

***
-- ask # return recorded melting point for entry COC(=O)C(C)(N)Cc1c[nH]c2ccc(OC(F)F)cc12 (racemic)
-- reply 140 to 142 °C

-- ask # return recorded melting point for entry "Cc1noc([C@@H](Cc2ccccc2)NC(=O)[C@@H](Cc2ccc3ccccc3c2)NC(=O)C=CC(C)(C)NC(=O)OC(C)(C)C)n1"
-- reply 161 to 167 °C

-- ask # return recorded melting point for entry "C=CCN1C(=O)c2cccc3c(OCCO)ccc(c23)C1=O"
-- reply 144 to 145 °C

-- ask # return recorded melting point for entry "N#Cc1cc(-c2c(-c3ccccc3)nn3ccccc23)c[nH]c1=O"
-- reply 312 to 314 °C

-- ask # return recorded melting point for entry "O=[N+]([O-])c1ccc(Nc2cccc(-n3cccc3)c2)c([N+](=O)[O-])c1"
-- reply 116 to 118 °C

-- ask # return recorded melting point for entry CCC(C)n1c2ccccc2c2ccccc21 (stereo not given)
-- reply 62 to 63 °C

-- ask # return recorded melting point for entry "Cc1ccc2ccccc2c1Cn1ccnc1"
-- reply 98 to 98.5 °C

-- ask # return recorded melting point for entry CC(C)(C)N1C(=O)C2Cc3[nH]cnc3CN2C1=O (stereo not given)
-- reply 156 to 158 °C

-- ask # return recorded melting point for entry "CC(=O)N1CCC(C(=NNc2ccccc2)c2ccc(Br)cc2F)CC1"
-- reply 174 to 176 °C
